protocol.summary: self-splicing fitness, log relative to wild type (ln ratio); higher = more splicing; Tetrahymena group I intron in knt gene, E. coli kanamycin selection, DiMSum; sequences stand for … in CUCUCU…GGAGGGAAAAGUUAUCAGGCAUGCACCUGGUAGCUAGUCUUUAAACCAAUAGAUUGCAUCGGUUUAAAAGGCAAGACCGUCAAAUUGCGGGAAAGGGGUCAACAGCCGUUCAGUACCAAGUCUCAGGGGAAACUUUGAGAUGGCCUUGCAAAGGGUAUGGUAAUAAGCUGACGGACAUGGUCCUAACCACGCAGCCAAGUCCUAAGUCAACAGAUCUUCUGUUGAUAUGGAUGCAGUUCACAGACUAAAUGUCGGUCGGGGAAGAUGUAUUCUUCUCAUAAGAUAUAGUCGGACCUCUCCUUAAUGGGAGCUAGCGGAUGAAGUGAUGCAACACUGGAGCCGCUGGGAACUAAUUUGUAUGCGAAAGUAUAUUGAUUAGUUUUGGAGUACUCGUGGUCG;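 note: selection with 25 µg/mL kanamycin versus none on LB agar overnight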
cond: 30 °C
The threshold is inclusive: self-splicing fitness (ln) of exactly -2 counts as y; values below receive n.

Determine whether measured self-splicing fitness (ln) meets or exceeds -2 for UCAGAGCAAUAUUACGUUCG
y

Determine whether measured self-splicing fitness (ln) meets or exceeds -2 for CCAGAGCAAUAUUACGCAGG
n

Determine whether measured self-splicing fitness (ln) meets or exceeds -2 for GAAAAGCAAUAUUACGCAGC
n

Determine whether measured self-splicing fitness (ln) meets or exceeds -2 for ACGGAGCAAUAUUACGUUCA
y

Determine whether measured self-splicing fitness (ln) meets or exceeds -2 for UACCAGCAAUAUUACGCACG
y

Determine whether measured self-splicing fitness (ln) meets or exceeds -2 for GAUGAGCAAUAUUACGUCGC
n

Determine whether measured self-splicing fitness (ln) meets or exceeds -2 for ACCUAGCAAUAUUACGCGUA
n

Determine whether measured self-splicing fitness (ln) meets or exceeds -2 for UAGUAGCAAUAUUACGUAAG
n

Determine whether measured self-splicing fitness (ln) meets or exceeds -2 for CGGAAGCAAUAUUACGUCGA
n

Determine whether measured self-splicing fitness (ln) meets or exceeds -2 for CUAGAGCAAUAUUACGACAA
n

Determine whether measured self-splicing fitness (ln) meets or exceeds -2 for UUUGAGCAAUAUUACGUACU
n

Determine whether measured self-splicing fitness (ln) meets or exceeds -2 for CAGAAGCAAUAUUACGGGUA
n

Determine whether measured self-splicing fitness (ln) meets or exceeds -2 for AAUAAGCAAUAUUACGUAUU
n

Determine whether measured self-splicing fitness (ln) meets or exceeds -2 for GCCUAGCAAUAUUACGAUCA
n

Determine whether measured self-splicing fitness (ln) meets or exceeds -2 for GGUGAGCAAUAUUACGAAUU
y

Determine whether measured self-splicing fitness (ln) meets or exceeds -2 for GAAAAGCAAUAUUACGACGC
y

Determine whether measured self-splicing fitness (ln) meets or exceeds -2 for GAGAAGCAAUAUUACGUAUA
n

Determine whether measured self-splicing fitness (ln) meets or exceeds -2 for CGAAAGCAAUAUUACGGCCG
y

Determine whether measured self-splicing fitness (ln) meets or exceeds -2 for AUUGAGCAAUAUUACGGACU
n

Determine whether measured self-splicing fitness (ln) meets or exceeds -2 for CAUAAGCAAUAUUACGCGGC
n

Determine whether measured self-splicing fitness (ln) meets or exceeds -2 for GCUCAGCAAUAUUACGGUCA
y

Determine whether measured self-splicing fitness (ln) meets or exceeds -2 for UAGUAGCAAUAUUACGGUGC
n

Determine whether measured self-splicing fitness (ln) meets or exceeds -2 for AUGUAGCAAUAUUACGUUUG
n

Determine whether measured self-splicing fitness (ln) meets or exceeds -2 for CGUCAGCAAUAUUACGGGUU
n

Determine whether measured self-splicing fitness (ln) meets or exceeds -2 for CUUUAGCAAUAUUACGAUUG
y

Determine whether measured self-splicing fitness (ln) meets or exceeds -2 for CAUCAGCAAUAUUACGUAAC
n

Determine whether measured self-splicing fitness (ln) meets or exceeds -2 for GGCGAGCAAUAUUACGCGGA
n

Determine whether measured self-splicing fitness (ln) meets or exceeds -2 for CGCUAGCAAUAUUACGUUUG
n

----------
protocol.summary: self-splicing fitness, log relative to wild type (ln ratio); higher = more splicing; Tetrahymena group I intron in knt gene, E. coli kanamycin selection, DiMSum; sequences stand for … in CUCUCU…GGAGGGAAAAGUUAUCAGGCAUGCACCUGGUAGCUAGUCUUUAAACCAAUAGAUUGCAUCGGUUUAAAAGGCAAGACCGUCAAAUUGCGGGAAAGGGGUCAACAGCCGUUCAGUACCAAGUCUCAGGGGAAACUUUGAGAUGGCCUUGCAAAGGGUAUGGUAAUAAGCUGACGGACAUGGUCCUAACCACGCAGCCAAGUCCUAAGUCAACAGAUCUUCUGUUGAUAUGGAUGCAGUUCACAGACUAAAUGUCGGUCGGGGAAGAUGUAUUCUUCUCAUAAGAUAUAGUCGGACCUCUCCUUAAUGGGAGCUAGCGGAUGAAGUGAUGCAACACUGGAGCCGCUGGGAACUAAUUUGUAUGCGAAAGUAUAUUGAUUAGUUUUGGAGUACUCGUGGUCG
cond: 30 °C
endpoint.label: self-splicing fitness (ln)
Give a plain numeric answer without units written out.

Which value of self-splicing fitness (ln) has been reported for UCCGAGCAAUAUUACGGUCU in the records?
-2.4

Which value of self-splicing fitness (ln) has been reported for ACUGAGCAAUAUUACGCGUA in the records?
-1.8

Which value of self-splicing fitness (ln) has been reported for UAUAAGCAAUAUUACGGAGA in the records?
-3.11

Which value of self-splicing fitness (ln) has been reported for ACAUAGCAAUAUUACGCACG in the records?
-2.07

Which value of self-splicing fitness (ln) has been reported for CAAAAGCAAUAUUACGUAAG in the records?
-0.419

Which value of self-splicing fitness (ln) has been reported for CGUGAGCAAUAUUACGAUCU in the records?
-0.613

Which value of self-splicing fitness (ln) has been reported for GAGCAGCAAUAUUACGCAAU in the records?
-1.89

Which value of self-splicing fitness (ln) has been reported for GCGAAGCAAUAUUACGUGGC in the records?
-3.33

Which value of self-splicing fitness (ln) has been reported for CAUAAGCAAUAUUACGCUUG in the records?
-3.08

----------
protocol.summary: self-splicing fitness, log relative to wild type (ln ratio); higher = more splicing; Tetrahymena group I intron in knt gene, E. coli kanamycin selection, DiMSum; sequences stand for … in CUCUCU…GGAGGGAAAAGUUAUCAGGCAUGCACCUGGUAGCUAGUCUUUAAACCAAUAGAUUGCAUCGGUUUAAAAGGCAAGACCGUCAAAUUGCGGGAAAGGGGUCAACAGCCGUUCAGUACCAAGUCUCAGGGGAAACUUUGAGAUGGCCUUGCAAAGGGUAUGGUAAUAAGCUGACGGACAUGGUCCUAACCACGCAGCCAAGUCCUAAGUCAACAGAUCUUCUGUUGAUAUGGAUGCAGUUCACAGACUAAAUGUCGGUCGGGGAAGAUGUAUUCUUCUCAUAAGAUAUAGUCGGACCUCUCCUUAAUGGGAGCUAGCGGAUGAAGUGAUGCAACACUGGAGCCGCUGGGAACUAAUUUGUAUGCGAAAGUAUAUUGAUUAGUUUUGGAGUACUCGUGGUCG
cond: 30 °C
So I've got a bunch of sequences here, and I need their self-splicing fitness (ln) values.
Give a plain numeric answer without units written out.

Which value of self-splicing fitness (ln) has been reported for AAGAAGCAAUAUUACGCUAC in the records?
-2.18

Which value of self-splicing fitness (ln) has been reported for ACCGAGCAAUAUUACGCAUC in the records?
-1.14

Which value of self-splicing fitness (ln) has been reported for AUAGAGCAAUAUUACGGUAG in the records?
-3.5

----------
protocol.summary: self-splicing fitness, log relative to wild type (ln ratio); higher = more splicing; Tetrahymena group I intron in knt gene, E. coli kanamycin selection, DiMSum; sequences stand for … in CUCUCU…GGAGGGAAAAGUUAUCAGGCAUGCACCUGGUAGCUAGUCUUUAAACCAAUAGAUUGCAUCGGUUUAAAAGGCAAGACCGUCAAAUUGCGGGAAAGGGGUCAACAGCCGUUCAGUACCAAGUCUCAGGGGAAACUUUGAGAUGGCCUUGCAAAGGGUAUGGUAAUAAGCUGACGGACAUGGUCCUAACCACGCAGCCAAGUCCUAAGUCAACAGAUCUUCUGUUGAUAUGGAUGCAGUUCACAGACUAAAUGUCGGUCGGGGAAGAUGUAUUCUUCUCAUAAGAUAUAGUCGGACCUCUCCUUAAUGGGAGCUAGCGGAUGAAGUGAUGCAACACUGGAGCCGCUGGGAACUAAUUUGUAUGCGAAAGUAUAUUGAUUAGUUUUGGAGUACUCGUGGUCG
cond: 30 °C
So I've got a bunch of sequences here, and I need their self-splicing fitness (ln) values.
Give a plain numeric answer without units written out.

Which value of self-splicing fitness (ln) has been reported for UGGAAGCAAUAUUACGUGCU in the records?
-2.92

Which value of self-splicing fitness (ln) has been reported for UUACAGCAAUAUUACGAGGU in the records?
-3.08

Which value of self-splicing fitness (ln) has been reported for GAAGAGCAAUAUUACGCGUC in the records?
-2.98
